The next entries give measured pIC50 for MMP-9 (Homo sapiens, UniProt P14780).
pIC50: −log10 of the molar value.

structure notation | pIC50
CC(C)[C@@H](NS(=O)(=O)N1CCN(c2ccc(C#Cc3ccc4c(c3)c(=O)n(Cc3ccc(F)cc3)c(=O)n4C)cc2)CC1)C(=O)O | < 5.00
C[C@@H](NS(=O)(=O)N1CCN(c2ccc(C#Cc3ccc4c(c3)c(/C=C/Cl)cn4C)cc2)CC1)C(=O)O | < 5.00
CC(C)[C@@H](NS(=O)(=O)N1CCN(c2ccc(C#Cc3ccnc(C(=O)NCc4ccc5c(c4)OCO5)c3)cc2)CC1)C(=O)O | < 5.00
